assay: BSK_3C_uPAR: BioMAP Diversity Plus: 3C Assay for Urokinase-type plasminogen activator receptor (uPAR) Biomarker Activity (AID 2282998); details: BioMAP 3C HUVEC, uPAR biomarker ELISA; actives raise or lower the signal
Calls of active or inactive are those of the source. How the source made its calls: active means hit-call score of the fitted dose curve at least 0.9, where 1 is the maximum; inactive means score below 0.9.
Hello, when you answer, please use one of the following outcomes: TRUE for active, FALSE for inactive

Before answering, review these 3 worked examples.
compound	group_label
N#Cc1c(Cl)c(Cl)c(Cl)c(C#N)c1Cl	TRUE
CCOc1nc(NC)nc(NC(=O)NS(=O)(=O)c2ccccc2C(=O)OC)n1	FALSE
CC1(C)C(C=C(Cl)Cl)C1C(=O)OC(C#N)c1ccc(F)c(Oc2ccccc2)c1 (centres undefined)	FALSE

Q: Recorded test outcome, item CC(C)(C)C(O)/C(=C\c1ccc(Cl)cc1Cl)n1cncn1 (centres undefined)
Ans: TRUE

###

read-out: Nuclear factor erythroid 2-related factor 2 (Homo sapiens) (UniProt Q16236); assay: LTEA_HepaRG_NFE2L2: Life Technologies and Expression Analysis (LTEA) Assay for Nuclear factor erythroid 2-related factor 2 (NFE2L2) Transcription Factor using HepaRG (AID 2283527); conditions: mRNA level, 48 h; actives raise or lower the signal
Sequence (Q16236 whole entry, looked up): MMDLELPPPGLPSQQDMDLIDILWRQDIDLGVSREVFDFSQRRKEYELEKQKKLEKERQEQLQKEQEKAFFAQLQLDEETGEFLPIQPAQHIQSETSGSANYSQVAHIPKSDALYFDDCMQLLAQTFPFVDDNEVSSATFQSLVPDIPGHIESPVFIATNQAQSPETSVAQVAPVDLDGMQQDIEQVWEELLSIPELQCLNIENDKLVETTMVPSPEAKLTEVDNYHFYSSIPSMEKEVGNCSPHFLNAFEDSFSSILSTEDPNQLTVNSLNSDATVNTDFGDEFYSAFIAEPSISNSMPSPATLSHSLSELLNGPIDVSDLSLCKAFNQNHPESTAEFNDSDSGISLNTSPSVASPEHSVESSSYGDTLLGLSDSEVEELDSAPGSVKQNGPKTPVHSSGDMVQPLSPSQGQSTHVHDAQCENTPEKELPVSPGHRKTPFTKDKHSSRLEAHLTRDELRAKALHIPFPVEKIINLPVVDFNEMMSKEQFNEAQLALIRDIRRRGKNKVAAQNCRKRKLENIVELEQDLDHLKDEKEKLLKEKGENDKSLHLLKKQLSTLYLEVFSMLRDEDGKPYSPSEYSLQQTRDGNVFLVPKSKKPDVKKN
Activity calls are given as the source filed them. The calls were made as follows: active = hit-call score of the fitted dose curve at least 0.9, where 1 is the maximum; inactive = score below 0.9.
Hello, when you answer, please use one of the following outcomes: active, inactive

compound	group_label
O=C(O)C(F)(F)C(F)(F)C(F)(F)C(F)(F)C(F)(F)C(F)(F)C(F)(F)F	inactive
O=C(O)COc1ccc(Cl)cc1Cl	inactive
Clc1ccccc1-c1nnc(-c2ccccc2Cl)nn1	inactive
CNC(=O)Oc1cccc(N=CN(C)C)c1	inactive
CCC(C)(C)C(=O)OC1=C(c2ccc(Cl)cc2Cl)C(=O)OC12CCCCC2	inactive

Q: Recorded test outcome, item CCC(C)Nc1c([N+](=O)[O-])cc(C(C)(C)C)cc1[N+](=O)[O-] (stereo not given)
Ans: inactive

Q: Recorded test outcome, item N#CN
Ans: inactive

Q: Recorded test outcome, item O=C1c2ccccc2C(=O)N1SC(Cl)(Cl)Cl
Ans: inactive

Q: Recorded test outcome, item CNC(=O)CSP(=S)(OC)OC
Ans: inactive

Q: Recorded test outcome, item CC1(c2ccc(Oc3ccccc3)cc2)OC(=O)N(Nc2ccccc2)C1=O (stereo not given)
Ans: active

###

read-out: Interleukin-1 alpha (IL1a), IL1A (gene 3552); test: BSK_BE3C_IL1a: BioMAP Diversity Plus: BE3C Assay for Interleukin-1 alpha (IL1a) Biomarker Activity (AID 2283016); conditions: primary human bronchial epithelial cells; actives raise or lower the signal
Active and inactive are the calls of the source. Rule for the calls: active = hit-call score of the fitted dose curve at least 0.9, where 1 is the maximum; inactive = score below 0.9.
Hello, when you answer, please use one of the following outcomes: YES (active), NO (inactive)

Q: Recorded test outcome, item Clc1ccccc1-c1nnc(-c2ccccc2Cl)nn1
Ans: NO

Q: Recorded test outcome, item CCc1ccc(C(=O)NN(C(=O)c2cc(C)cc(C)c2)C(C)(C)C)cc1
Ans: NO

Q: Recorded test outcome, item N#CN
Ans: NO

Q: Recorded test outcome, item O=C(O)C(F)(F)C(F)(F)C(F)(F)C(F)(F)C(F)(F)C(F)(F)C(F)(F)F
Ans: NO

Q: Recorded test outcome, item O=[N+]([O-])c1c(Cl)c(Cl)c(Cl)c(Cl)c1Cl
Ans: NO

Q: Recorded test outcome, item CN1CSC(=S)N(C)C1
Ans: NO

###

assay: CCTE_Shafer_MEA_acute_firing_rate_mean: CCTE's Neural Acute Assay for Mean Firing Rate, Shafer Lab (AID 2284009);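 further: analyzed for loss of signal so actives lower firing rate relative to DMSO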
Activity calls are given as the source filed them. Rule for the calls: active = hit-call score of the fitted dose curve at least 0.9, where 1 is the maximum; inactive = score below 0.9.
Hello, when you answer, please use one of the following outcomes: active, inactive

Before answering, review these 4 worked examples.
compound	group_label
CNC(=O)/C=C(\C)OP(=O)(OC)OC	inactive
CNC(=O)CSP(=S)(OC)OC	inactive
O=[N+]([O-])/N=C1\NCCN1Cc1ccc(Cl)nc1	inactive
CC[C@H](C)[C@H]1O[C@]2(C=C[C@@H]1C)C[C@@H]1C[C@@H](C/C=C(\C)[C@@H](O[C@H]3C[C@H](OC)[C@@H](O[C@H]4C[C@H](OC)[C@@H](O)[C@H](C)O4)[C@H](C)O3)[C@@H](C)/C=C/C=C3\CO[C@@H]4[C@H](O)C(C)=C[C@@H](C(=O)O1)[C@]34O)O2 (tested in a mixture with another compound)	active

Kindly review the next compound as well.
Q: Recorded test outcome, item O=C(O)CCCOc1ccc(Cl)cc1Cl
Ans: inactive
